target: Serine hydroxymethyltransferase, mitochondrial (Homo sapiens) (UniProt P34897); assay: Inhibition of His-tagged human recombinant SHMT2 expressed in Escherichia coli BLR(DE3) assessed as reduction in NADPH level using L-serine, THF and NADP+ at 6.5 or 26.5 uM incubated for 5 mins by SHMT2-MTHFD coupled reaction based fluorescence assay relative to control
Sequence (P34897 whole entry): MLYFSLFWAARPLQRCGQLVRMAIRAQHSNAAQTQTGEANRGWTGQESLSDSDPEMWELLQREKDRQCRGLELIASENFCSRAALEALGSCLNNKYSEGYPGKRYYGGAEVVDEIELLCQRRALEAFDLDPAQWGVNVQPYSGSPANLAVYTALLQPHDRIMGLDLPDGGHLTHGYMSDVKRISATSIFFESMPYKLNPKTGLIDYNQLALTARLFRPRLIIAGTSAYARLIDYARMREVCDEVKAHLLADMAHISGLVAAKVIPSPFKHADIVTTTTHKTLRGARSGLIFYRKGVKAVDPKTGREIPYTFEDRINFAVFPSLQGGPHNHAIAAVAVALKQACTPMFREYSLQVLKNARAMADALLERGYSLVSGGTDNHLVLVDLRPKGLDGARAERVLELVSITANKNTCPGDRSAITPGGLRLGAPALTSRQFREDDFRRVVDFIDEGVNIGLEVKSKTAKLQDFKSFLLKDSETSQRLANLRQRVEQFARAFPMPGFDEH
Measured inhibition accompanies every entry in the list below.

compound: Nc1nc(=O)c2nc(CNc3ccc(C(=O)N[C@@H](CCC(=O)O)C(=O)O)cc3)cnc2[nH]1
inhibition: 53.6%
--
compound: CC(=O)[C@H]1CC[C@H]2[C@@H]3CCC4C[C@H](O)CC[C@]4(C)[C@H]3C[C@H](O)[C@]12C (some centres not stated)
inhibition: 71.6%
--
compound: COc1cc2c(CCNC(C)=O)c[nH]c2cc1O
inhibition: 92.7%
--
compound: COC(=O)[C@@H]1OC(=O)C2OC23[C@]2(C)[C@H](O)CC4C(C)(C)[C@H](OC(C)=O)C[C@H](OC(C)=O)[C@]4(C)[C@H]2CC[C@@]13C (some centres not stated)
inhibition: 81.8%
--
compound: COC(=O)[C@@H]1C(O)CC[C@H]2CN3CCc4c([nH]c5ccccc45)[C@@H]3C[C@@H]21 (some centres not stated)
inhibition: 73.9%
--
compound: CCC(N)C(O)c1ccc(O)c(O)c1 (configuration not stated)
inhibition: 87%
--
compound: N#Cc1ccc(S(=O)(=O)Cc2cccc3ccccc23)cc1
inhibition: 54.5%
--
compound: CN(C)c1cc2c(Nc3ccc4c(cnn4Cc4ccccc4)c3)ncnc2cn1 [GW282974X]
inhibition: 77.5%
--
compound: Oc1ccc2[nH]cc(C3=CCNCC3)c2n1
inhibition: 73.2%
--
compound: Nc1cc(-c2ccncc2)c[nH]c1=O
inhibition: 92.3%
--
compound: Brc1c(NC2=NCCN2)ccc2nccnc12
inhibition: 79%
--
compound: Cc1nc2c(OCc3ccccc3)cccn2c1CC#N
inhibition: 77.9%
--
compound: CNC(=O)Oc1ccc2c(c1)[C@]1(C)CCN(C)[C@@H]1N2
inhibition: 55.9%
--
compound: CC(C)C[C@H](N(C)C)C1(c2ccc(Cl)cc2)CCC1
inhibition: 62%
--
compound: C=C(C)[C@H]1CC=C(C(=O)O)CC1
inhibition: 70%
--
compound: CN(C)N1C(=O)c2cccc3c(Br)ccc(c23)C1=O
inhibition: 69.8%
--
compound: CC(C)(C)C(=O)C(C#N)CNc1cccc2nsnc12 (configuration not stated)
inhibition: 69.6%
--
compound: Cc1[nH]c2ccc(O)cc2c1CCN
inhibition: 59%
--
compound: COc1ccc2cc1Oc1ccc(cc1)C[C@H]1c3c(cc4c(c3Oc3cc5c(cc3OC)CCN(C)[C@@H]5C2)OCO4)CCN1C
inhibition: 70.4%
--
compound: CCOC(=O)[C@H](CCc1ccccc1)N[C@H](C)C(=O)N1C2CCCCC2C[C@H]1CO (some centres not stated)
inhibition: 53%
--
compound: CCNc1cc(N)[n+](CC)c2[nH]nc(/N=C/c3cc(Cl)cc(Cl)c3O)c12
inhibition: 97%
--
compound: NC(=O)NC1NC(=O)NC1=O (configuration not stated)
inhibition: 58.2%

Ref: ChEMBL document CHEMBL4418497
